assay: Effect of a single 2 g dose of SYM-1219 on the plasma pharmacokinetics of EE2 and NET in healthy female subjects; assay type: in vivo, human; conditions: female, human, plasma, Group B2 Period 2: SYM-1219 2 grams on Day 1, EE2/NET on Day 2; read-out: NET AUC0-t, Mean
reported property: AUC(0-t)
Provide the measurement as a number trailed by its unit.

Query: Hello, please tell me recorded AUC(0-t) for this one: `C#C[C@]1(O)CC[C@H]2[C@@H]3CCC4=CC(=O)CC[C@@H]4[C@H]3CC[C@@]21C`
Result: 61.2 ng·h/mL

* * *

Assay: Effect of a single 2 g dose of SYM-1219 on the plasma pharmacokinetics of EE2 and NET in healthy female subjects
Assay type: in vivo, human
Conditions: female, human, plasma, Group B2 Period 1: EE2/NET alone; read-out: NET t1/2, Median (converted)
Method: Methods: Fifty-four (54) healthy female subjects, ages 18-65, received EE2/NET alone and in combination, where SYM-1219+EE2/NET were co-administered on Day 1 (Group B1; N=27) or SYM-1219 on Day 1 and EE2/NET on Day 2 (Group B2; N=27). Serial blood samples were drawn to measure plasma concentrations of EE2/NET. […] Safety was evaluated by recording of adverse events, vital signs, ECGs and standard laboratory tests.
reported property: half-life (h)
Please give a number only; it is taken to be in h.

Query: Give the measured half-life for C#C[C@]1(O)CC[C@H]2[C@@H]3CCC4=CC(=O)CC[C@@H]4[C@H]3CC[C@@]21C [NET, norethindrone]
Result: 9.29
